MEASURED_QUANTITY: IC50 (nM)
Numeric answer only, unit nM assumed.

Record COc1ccc(/C=C/C(=O)/C=C(O)/C=C/c2ccc(OC)c(OC)c2)cc1OC [compound 2] ; system Human Aβ(1–42) (Homo sapiens, UniProt P05067); IC50 = 150

---

# ASSAY_TARGET: Human Aβ(1–42) (Homo sapiens)
# Construct: Human Aβ(1–42) was purchased from AnaSpec (San Jose, CA); purchased AnaSpec (San Jose, CA)
# Sequence (P05067 672-713 limits assumed): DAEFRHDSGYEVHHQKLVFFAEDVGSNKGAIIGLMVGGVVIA
# PROTOCOL_DESCRIPTION: Aβ peptide oligomerization reaction with capture ELISA for Aβ oligomer detection
# Format: biochemical
# CONDITION_PARAMETERS: 1 µM compound, 200 nM monomeric Aβ peptide, 37°C, 24 h, capture ELISA; read-out: Inhibitory activity (Aβ oligomerization)
If the reported inhibition at 1 µM equals or exceeds 60%, assign label 1. If not, assign label 0.

Given COc1cccc(/C=C/C(=O)/C=C(O)/C=C/c2cccc(OC)c2OC)c1OC [compound 7] , state whether its inhibition at 1 µM is at least 60%.
label 0

Given COc1cccc(/C=C/C(=O)/C=C/c2cccc(OC)c2)c1 [compound 16] , state whether its inhibition at 1 µM is at least 60%.
label 0

Given COc1cc(/C=C/C(=O)/C=C/c2ccccc2)ccc1O [compound 11] , state whether its inhibition at 1 µM is at least 60%.
label 1

Given O=C(/C=C/c1ccc(O)c(O)c1)/C=C/c1ccc(O)c(O)c1 [compound 8] , state whether its inhibition at 1 µM is at least 60%.
label 1

Given COc1cc(/C=C/C(=O)/C(C)=C(O)/C=C/c2ccc(O)c(OC)c2)ccc1O [compound 3] , state whether its inhibition at 1 µM is at least 60%.
label 1

---

# ASSAY_TARGET: Human Aβ(1–42) (Homo sapiens)
# Construct: Human Aβ(1–42) was purchased from AnaSpec (San Jose, CA); purchased AnaSpec (San Jose, CA)
# PROTOCOL_DESCRIPTION: Aβ peptide oligomerization reaction with capture ELISA for Aβ oligomer detection
# Assay type: biochemical
# CONDITION_PARAMETERS: 1 µM compound, 200 nM monomeric Aβ peptide, 37°C, 24 h, capture ELISA; read-out: Inhibitory activity (Aβ oligomerization)
MEASURED_QUANTITY: inhibition at 1 µM (%)
Numeric answer only, unit % assumed.

Query `COc1ccc(/C=C/C(=O)/C=C(O)/C=C/c2ccc(OC)c(O)c2)cc1O` yields inhibition at 1 µM of 80

Query `O=C(/C=C/c1cccc(C(F)(F)F)c1)/C=C/c1cccc(C(F)(F)F)c1` yields inhibition at 1 µM of 55

Query `Cc1ccc(/C=C/C(=O)/C=C/c2ccc(C)cc2)cc1` yields inhibition at 1 µM of 62

Query `O=C(/C=C/c1ccc(O)cc1)/C=C/c1ccc(O)cc1` yields inhibition at 1 µM of 49

Query `COc1cc(/C=C/C(=O)/C(Cc2ccccc2)=C(O)/C=C/c2ccc(O)c(OC)c2)ccc1O` yields inhibition at 1 µM of 51

Query `CN(C)c1ccc(/C=C/C(=O)/C=C/c2ccc(N(C)C)cc2)cc1` yields inhibition at 1 µM of 54

Query `COc1ccccc1/C=C/C(=O)/C=C/c1ccccc1OC` yields inhibition at 1 µM of 63

Query `COc1cc(/C=C/C(=O)/C=C/c2ccc(OC(C)=O)c(OC)c2)ccc1OC(C)=O` yields inhibition at 1 µM of 53

Query `COC(=O)c1ccc(/C=C/C(=O)/C=C/c2ccc(C(=O)OC)cc2)cc1` yields inhibition at 1 µM of 66

Query `O=C(/C=C/c1cccc(Cl)c1)/C=C/c1cccc(Cl)c1` yields inhibition at 1 µM of 58

Query `O=C(/C=C/c1ccccc1)/C=C/c1ccccc1` yields inhibition at 1 µM of 65
